Hello, the source for this data is ChEMBL document CHEMBL1131937, in case you need it.

What follows is a collection of log10 Ki values obtained with Phenylethanolamine N-methyltransferase (Bos taurus).
Sequence (P10938 whole entry): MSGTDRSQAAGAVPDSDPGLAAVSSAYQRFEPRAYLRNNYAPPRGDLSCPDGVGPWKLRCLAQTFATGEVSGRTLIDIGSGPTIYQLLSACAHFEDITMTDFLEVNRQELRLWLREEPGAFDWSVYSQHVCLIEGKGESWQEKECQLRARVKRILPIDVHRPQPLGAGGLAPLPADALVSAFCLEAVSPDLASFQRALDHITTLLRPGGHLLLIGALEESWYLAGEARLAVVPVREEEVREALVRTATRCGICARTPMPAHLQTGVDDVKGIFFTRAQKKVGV
A difference of one corresponds to tenfold Ki; all values are log10 with Ki in nM.

O=[N+]([O-])c1ccc2c(c1)CNCCCC2 3.66

The reported value for `Brc1ccc2c(c1)CNCC2` in terms of log10 Ki is 2.47

----------
testedOn: Adrenergic receptor alpha-2 (Rattus norvegicus, UniProt P22086+P19328+P22909)
protocolDescription: Inhibition of [3H]clonidine binding to the rat alpha-2-adrenoceptor
Type: protein assay
Design: unit not given here
measuredMetric: Log Ki

Below: 5 molecules and their reported Log Ki.
CSc1ccc2c(c1)CNCC2 6.39
Oc1ccc2c(c1)CCNC2 6
Oc1ccc2c3c(ccc2c1)CCNC3 7.1
CC(=O)c1ccc2c(c1)CNCC2 5.21
c1ccc(Cc2ccc3c(c2)CNCC3)cc1 5.33

Next item in the queue.
Summary: `Oc1cc2c(cc1O)CNCC2` , Adrenergic receptor alpha-2 (Rattus norvegicus, UniProt P22086+P19328+P22909), Log Ki = 6.32
